Exercise: state measured abundance fitness for each of the variants provided.
B1: Homeobox protein cut-like 2, residues 895 to 963; numbered along this chain, O14529 (parent)
chain: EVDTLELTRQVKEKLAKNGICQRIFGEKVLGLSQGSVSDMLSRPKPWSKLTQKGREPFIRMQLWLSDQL

# Variants of: B1
# testName: abundance fitness (aPCA) (normalised: wild type 0, dead -1); higher = more abundant; growth selection in yeast, the domain comes from the species named
# experimentalSetup: Homo sapiens
Provide a numeric answer; units are not to be included.

Prompt: Report abundance fitness for `P44D`
Completion: -0.429

Prompt: Report abundance fitness for `S48V`
Completion: -0.259

Prompt: Report abundance fitness for `G35L`
Completion: -0.03

Prompt: Report abundance fitness for `K17N`
Completion: -0.011

Prompt: Report abundance fitness for `E6N`
Completion: -0.055

Prompt: Report abundance fitness for `R55I`
Completion: -0.684

Prompt: Report abundance fitness for `K12R`
Completion: -0.187

Prompt: Report abundance fitness for `E56I`
Completion: 0.096

Prompt: Report abundance fitness for `V11S`
Completion: -0.166

Prompt: Report abundance fitness for `L32R`
Completion: -0.179

Prompt: Report abundance fitness for `R43D`
Completion: 0.013

Prompt: Report abundance fitness for `T4S`
Completion: -0.244

Prompt: Report abundance fitness for `L63K`
Completion: 0.113

Prompt: Report abundance fitness for `W64D`
Completion: -1.06

Prompt: Report abundance fitness for `S66M`
Completion: -0.085

Prompt: Report abundance fitness for `Q68I`
Completion: -0.142

Prompt: Report abundance fitness for `E1S`
Completion: -0.063

Prompt: Report abundance fitness for `C21D`
Completion: -0.103

Prompt: Report abundance fitness for `F25I`
Completion: -0.711

Prompt: Report abundance fitness for `G19Q`
Completion: -0.242

Prompt: Report abundance fitness for `S48C`
Completion: -0.003

Prompt: Report abundance fitness for `L63I`
Completion: -0.213

Where do the numbers come from? From the Human Domainome abundance scans (Beltran et al. 2025).
